Tested on: SN12C (renal cancer cell line)
Protocol details: NCI-60 single-dose assay
Format: cell-based, human
Measurement conditions: Homo sapiens, read-out: growth inhibition (GI%) and cytotoxicity (negative values)
Excerpt: We first evaluated the cytotoxic activity of tricyclic-pyrrole carboxamides 1–20 using the NCI-60 cell line panel, representing nine different human cancers: leukemia, melanoma, and cancers of the lung, colon, central nervous system (CNS), ovary, kidney, prostate, and breast (the one-dose graph for compounds 1–20 is reported in Supplementary Materials, Figures S43–S62). […]
Catalogue of inhibition at 10 µM values

{"columns": ["Smiles structure", "Tested target", "inhibition at 10 µM"],
 "data": [
  ["O=C(NCCCN1CCN(Cc2ccccc2)CC1)c1c(Cl)[nH]c2c1CCCc1ccccc1-2", "SN12C (renal cancer cell line)", "< 60%"],
  ["N#Cc1ccccc1N1CCN(CCNC(=O)c2c(Cl)[nH]c3c2CCCc2ccccc2-3)CC1", "SN12C (renal cancer cell line)", "< 60%"],
  ["COc1ccccc1N1CCN(CCNC(=O)c2[nH]c3c(c2Cl)CCCc2ccccc2-3)CC1", "SN12C (renal cancer cell line)", "71.8%"],
  ["O=C(NCCCN1CCN(c2ccccc2)CC1)c1cc2c([nH]1)-c1ccccc1CCC2", "SN12C (renal cancer cell line)", "< 60%"],
  ["CCOc1ccccc1N1CCN(CCNC(=O)c2c(Cl)[nH]c3c2CCCc2ccccc2-3)CC1", "SN12C (renal cancer cell line)", "60.7%"]
]}

query: // inhibition at 10 µM lookup, key: `CCN1CCC[C@H]1CNC(=O)c1[nH]c2c(c1Cl)CCCc1ccccc1-2`
result: < 60%

query: Moving on to the next compound: `COc1ccccc1N1CCN(CCNC(=O)c2c(Cl)[nH]c3c2CCCc2ccccc2-3)CC1`
result: < 60%

* * *

Catalogue of growth inhibition (GI%) and cytotoxicity (negative values) values
System: HCC-2998 (colon cancer cell line)
Protocol details: NCI-60 single-dose assay
Assay type: cell-based, human
Measurement conditions: human
Expressed in %, but write only the number.

# annotated cases, reported growth inhibition (GI%) and cytotoxicity (negative values) shown
{"columns": ["Smiles structure", "Unit text", "Test result"],
 "data": [
  ["CCN1CCC[C@H]1CNC(=O)c1[nH]c2c(c1Cl)CCCc1ccccc1-2", "%", "−21.01"],
  ["COc1ccccc1N1CCN(CCNC(=O)c2c(Cl)[nH]c3c2CCCc2ccccc2-3)CC1", "%", "−18.77"]
]}

query: // growth inhibition (GI%) and cytotoxicity (negative values) lookup, key: `CCOc1ccccc1N1CCN(CCNC(=O)c2c(Cl)[nH]c3c2CCCc2ccccc2-3)CC1`
result: −35.63

query: Moving on to the next compound: `O=C(NCCCN1CCN(Cc2ccccc2)CC1)c1c(Cl)[nH]c2c1CCCc1ccccc1-2`
result: −91.84

query: Moving on to the next compound: `O=C(NCCCN1CCN(c2ccccc2)CC1)c1cc2c([nH]1)-c1ccccc1CCC2`
result: −9.32

* * *

System: NCI-H522 (non-small cell lung cancer cell line)
Protocol details: NCI-60 single-dose assay
Format: cell-based, human
Measurement conditions: Homo sapiens, NCI-H522, read-out: growth inhibition (GI%) and cytotoxicity (negative values)
Catalogue of inhibition at 10 µM values
Just the number plus its unit, please.

{"columns": ["Smiles structure", "Tested target", "Test result"],
 "data": [
  ["COc1ccccc1N1CCN(CCNC(=O)c2[nH]c3c(c2Cl)CCCc2ccccc2-3)CC1", "NCI-H522 (non-small cell lung cancer cell line)", "85.5%"],
  ["CCN1CCC[C@H]1CNC(=O)c1[nH]c2c(c1Cl)CCCc1ccccc1-2", "NCI-H522 (non-small cell lung cancer cell line)", "73.5%"],
  ["O=C(NCCCN1CCN(c2ccccc2)CC1)c1cc2c([nH]1)-c1ccccc1CCC2", "NCI-H522 (non-small cell lung cancer cell line)", "71.4%"],
  ["CCOc1ccccc1N1CCN(CCNC(=O)c2c(Cl)[nH]c3c2CCCc2ccccc2-3)CC1", "NCI-H522 (non-small cell lung cancer cell line)", "65.7%"]
]}

Now let's try a different one.
query: // inhibition at 10 µM lookup, key: `O=C(NCCCN1CCN(Cc2ccccc2)CC1)c1c(Cl)[nH]c2c1CCCc1ccccc1-2`
result: 92.2%

* * *

Tested on: M14 (melanoma cell line)
Protocol details: NCI-60 single-dose assay
Format: cell-based, human
Measurement conditions: human
Excerpt: We first evaluated the cytotoxic activity of tricyclic-pyrrole carboxamides 1–20 using the NCI-60 cell line panel, representing nine different human cancers: leukemia, melanoma, and cancers of the lung, colon, central nervous system (CNS), ovary, kidney, prostate, and breast (the one-dose graph for compounds 1–20 is reported in Supplementary Materials, Figures S43–S62). […]
Kind request: treat -60% as inclusive, so growth inhibition (GI%) and cytotoxicity (negative values) at -60% or higher is criterion met, anything lower is criterion not met.

Consider the following illustrative entries.
{"columns": ["Smiles structure", "Classification"],
 "data": [
  ["O=C(NCCCN1CCN(Cc2ccccc2)CC1)c1c(Cl)[nH]c2c1CCCc1ccccc1-2", "criterion not met"],
  ["CCOc1ccccc1N1CCN(CCNC(=O)c2c(Cl)[nH]c3c2CCCc2ccccc2-3)CC1", "criterion met"],
  ["COc1ccccc1N1CCN(CCNC(=O)c2[nH]c3c(c2Cl)CCCc2ccccc2-3)CC1", "criterion met"]
]}

query: Threshold query (growth inhibition (GI%) and cytotoxicity (negative values) >= -60%) on `CCN1CCC[C@H]1CNC(=O)c1[nH]c2c(c1Cl)CCCc1ccccc1-2`
result: criterion not met

* * *

System: Vero TMPRSS cells
Measurement conditions: VERO TMPRSS cells, 24 h; full dose-response
Quantity kind: CC50 (µM)
Expressed in µM, but write only the number.

query: // CC50 lookup, key: O=c1nc(NO)ccn1[C@@H]1O[C@H](CO)[C@@H](O)[C@H]1O [EIDD-1931, reference compound]
result: 22.2

* * *

System: T-47D (breast cancer cell line)
Protocol details: NCI-60 single-dose assay
Type: cell-based, human
Measurement conditions: Homo sapiens, T47D, read-out: growth inhibition (GI%) and cytotoxicity (negative values)
Catalogue of inhibition at 10 µM values
Expressed in %, but write only the number.

{"columns": ["Smiles structure", "Unit text", "inhibition at 10 µM"],
 "data": [
  ["O=C(NCCCN1CCN(c2ccccc2)CC1)c1cc2c([nH]1)-c1ccccc1CCC2", "%", 65.8],
  ["N#Cc1ccccc1N1CCN(CCNC(=O)c2c(Cl)[nH]c3c2CCCc2ccccc2-3)CC1", "%", 71.8]
]}

query: // inhibition at 10 µM lookup, key: `CCOc1ccccc1N1CCN(CCNC(=O)c2c(Cl)[nH]c3c2CCCc2ccccc2-3)CC1`
result: 77.6

query: Moving on to the next molecule: `O=C(NCCCN1CCN(Cc2ccccc2)CC1)c1c(Cl)[nH]c2c1CCCc1ccccc1-2`
result: 78.5

query: Moving on to the next molecule: `CCN1CCC[C@H]1CNC(=O)c1[nH]c2c(c1Cl)CCCc1ccccc1-2`
result: 66.2

* * *

Catalogue of growth inhibition (GI%) and cytotoxicity (negative values) values
Test system: COLO 205 (colon cancer cell line)
Protocol details: NCI-60 single-dose assay
Format: cell-based, human
Measurement conditions: human
Expressed in %, but write only the number.

{"columns": ["Smiles structure", "Unit text", "Test result"],
 "data": [
  ["O=C(NCCCN1CCN(c2ccccc2)CC1)c1cc2c([nH]1)-c1ccccc1CCC2", "%", "−58.03"]
]}

query: // growth inhibition (GI%) and cytotoxicity (negative values) lookup, key: `COc1ccccc1N1CCN(CCNC(=O)c2[nH]c3c(c2Cl)CCCc2ccccc2-3)CC1`
result: −48.74

query: Moving on to the next compound: `O=C(NCCCN1CCN(Cc2ccccc2)CC1)c1c(Cl)[nH]c2c1CCCc1ccccc1-2`
result: −59.92

query: Moving on to the next compound: `CCN1CCC[C@H]1CNC(=O)c1[nH]c2c(c1Cl)CCCc1ccccc1-2`
result: −52.22

query: Moving on to the next compound: `CCOc1ccccc1N1CCN(CCNC(=O)c2c(Cl)[nH]c3c2CCCc2ccccc2-3)CC1`
result: −47.24

* * *

Catalogue of inhibition at 10 µM values
System: BT-549 (breast cancer cell line)
Protocol details: NCI-60 single-dose assay
Format: cell-based, human
Measurement conditions: Homo sapiens, BT-549, read-out: growth inhibition (GI%) and cytotoxicity (negative values)
Expressed in %, but write only the number.

{"columns": ["Smiles structure", "inhibition at 10 µM, %"],
 "data": [
  ["COc1ccccc1N1CCN(CCNC(=O)c2c(Cl)[nH]c3c2CCCc2ccccc2-3)CC1", 66.5],
  ["O=C(NCCCN1CCN(Cc2ccccc2)CC1)c1c(Cl)[nH]c2c1CCCc1ccccc1-2", 68.4],
  ["CCN1CCC[C@H]1CNC(=O)c1[nH]c2c(c1Cl)CCCc1ccccc1-2", 62.9]
]}

query: Requested read-out inhibition at 10 µM, target or system BT-549 (breast cancer cell line), entry `N#Cc1ccccc1N1CCN(CCNC(=O)c2c(Cl)[nH]c3c2CCCc2ccccc2-3)CC1`
result: 78.3

query: Moving on to the next molecule: `CCOc1ccccc1N1CCN(CCNC(=O)c2c(Cl)[nH]c3c2CCCc2ccccc2-3)CC1`
result: 80.7
